Please go through the items and note down their viability at 48 h, 0.01 µM.
Assay: Cytotoxicity against human WI38 cells assessed as cell viability at 0.01 uM after 48 hrs by SRB assay
Format: cell-based, WI-38
Details: read-out: Activity

What the record says about Cc1cccc2c1SC[C@@H]1[C@@H](OCc3ccccc3)[C@H](OCc3ccccc3)[C@@H](COCc3ccccc3)O[C@H]21 : viability at 48 h, 0.01 µM is 103%

What the record says about Cc1ccc2c(c1)[C@H]1O[C@H](COCc3ccccc3)[C@@H](OCc3ccccc3)[C@H](OCc3ccccc3)[C@H]1C[S@+]2[O-] : viability at 48 h, 0.01 µM is 103%

Report viability at 48 h, 0.01 µM for every entry below.
1. Cc1cccc2c1[S@@+]([O-])C[C@@H]1[C@@H](OCc3ccccc3)[C@H](OCc3ccccc3)[C@@H](COCc3ccccc3)O[C@H]21
2. Cc1ccc2c(c1)[C@H]1O[C@H](COCc3ccccc3)[C@@H](OCc3ccccc3)[C@H](OCc3ccccc3)[C@H]1CS2
3. [O-][S@+]1C[C@@H]2[C@@H](OCc3ccccc3)[C@H](OCc3ccccc3)[C@@H](COCc3ccccc3)O[C@@H]2c2c1ccc1ccccc21
4. Cc1ccc2c(c1)[C@H]1O[C@H](COCc3ccccc3)[C@@H](OCc3ccccc3)[C@H](OCc3ccccc3)[C@H]1C[S@@+]2[O-]

102%
97%
101%
101%

###

Assay: Cytotoxicity against human WI38 cells assessed as cell viability at 10 uM after 48 hrs by SRB assay
Type: cell-based, WI-38
Conditions: read-out: Activity
Please go through the items and note down their viability at 48 h, 10 µM.
Give bare numbers, in %.

# count of solved cases: 5
What the record says about Cc1cccc2c1SC[C@@H]1[C@@H](OCc3ccccc3)[C@H](OCc3ccccc3)[C@@H](COCc3ccccc3)O[C@H]21 : viability at 48 h, 10 µM is 85.4

What the record says about COc1ccc2c(c1)[C@H]1O[C@H](COCc3ccccc3)[C@@H](OCc3ccccc3)[C@H](OCc3ccccc3)[C@H]1C[S@@+]2[O-] : viability at 48 h, 10 µM is 55.4

What the record says about COc1ccc2c(c1)[C@H]1O[C@H](COCc3ccccc3)[C@@H](OCc3ccccc3)[C@H](OCc3ccccc3)[C@H]1CS2 : viability at 48 h, 10 µM is 90.8

What the record says about Cc1cccc2c1[S@@+]([O-])C[C@@H]1[C@@H](OCc3ccccc3)[C@H](OCc3ccccc3)[C@@H](COCc3ccccc3)O[C@H]21 : viability at 48 h, 10 µM is 84.7

What the record says about Cc1cccc2c1[S@+]([O-])C[C@@H]1[C@@H](OCc3ccccc3)[C@H](OCc3ccccc3)[C@@H](COCc3ccccc3)O[C@H]21 : viability at 48 h, 10 µM is 88.2

Now let's try a different one.
What the record says about Cc1ccc2c(c1)[C@H]1O[C@H](COCc3ccccc3)[C@@H](OCc3ccccc3)[C@H](OCc3ccccc3)[C@H]1C[S@@+]2[O-] : viability at 48 h, 10 µM is 92.6

###

Please go through the items and note down their viability at 48 h, 0.1 µM.
Experiment: Cytotoxicity against human WI38 cells assessed as cell viability at 0.1 uM after 48 hrs by SRB assay
Format: cell-based, WI-38
Conditions: read-out: Activity
Numbers only, in %.

# count of solved cases: 4
What the record says about Cc1cccc2c1SC[C@@H]1[C@@H](OCc3ccccc3)[C@H](OCc3ccccc3)[C@@H](COCc3ccccc3)O[C@H]21 : viability at 48 h, 0.1 µM is 99.5

What the record says about Cc1cccc2c1[S@+]([O-])C[C@@H]1[C@@H](OCc3ccccc3)[C@H](OCc3ccccc3)[C@@H](COCc3ccccc3)O[C@H]21 : viability at 48 h, 0.1 µM is 99.3

What the record says about COc1ccc2c(c1)[C@H]1O[C@H](COCc3ccccc3)[C@@H](OCc3ccccc3)[C@H](OCc3ccccc3)[C@H]1C[S@+]2[O-] : viability at 48 h, 0.1 µM is 100

What the record says about COc1ccc2c(c1)[C@H]1O[C@H](COCc3ccccc3)[C@@H](OCc3ccccc3)[C@H](OCc3ccccc3)[C@H]1CS2 : viability at 48 h, 0.1 µM is 95.8

Report viability at 48 h, 0.1 µM for every entry below.
1. Cc1ccc2c(c1)[C@H]1O[C@H](COCc3ccccc3)[C@@H](OCc3ccccc3)[C@H](OCc3ccccc3)[C@H]1CS2
2. CC(C)(C)c1ccc2c(c1)[C@H]1O[C@H](COCc3ccccc3)[C@@H](OCc3ccccc3)[C@H](OCc3ccccc3)[C@H]1CS2(=O)=O
3. Cc1cccc2c1[S@@+]([O-])C[C@@H]1[C@@H](OCc3ccccc3)[C@H](OCc3ccccc3)[C@@H](COCc3ccccc3)O[C@H]21
4. Cc1ccc2c(c1)[C@H]1O[C@H](COCc3ccccc3)[C@@H](OCc3ccccc3)[C@H](OCc3ccccc3)[C@H]1C[S@@+]2[O-]
5. O=S1(=O)C[C@@H]2[C@@H](OCc3ccccc3)[C@H](OCc3ccccc3)[C@@H](COCc3ccccc3)O[C@@H]2c2ccccc21
6. CC(C)(C)c1ccc2c(c1)[C@H]1O[C@H](COCc3ccccc3)[C@@H](OCc3ccccc3)[C@H](OCc3ccccc3)[C@H]1C[S@@+]2[O-]

96.3
96.3
99.5
101
97
98.8

Report viability at 48 h, 0.1 µM for every entry below.
1. Cc1ccc2c(c1)[C@H]1O[C@H](COCc3ccccc3)[C@@H](OCc3ccccc3)[C@H](OCc3ccccc3)[C@H]1C[S@+]2[O-]
2. CC(C)(C)c1ccc2c(c1)[C@H]1O[C@H](COCc3ccccc3)[C@@H](OCc3ccccc3)[C@H](OCc3ccccc3)[C@H]1C[S@+]2[O-]
3. c1ccc(COC[C@H]2O[C@@H]3c4ccccc4SC[C@@H]3[C@@H](OCc3ccccc3)[C@@H]2OCc2ccccc2)cc1

101
102
98.6
